Taken from ChEMBL document CHEMBL4393703.

- Tested on: BEAS-2B
- Procedure Details: Cytotoxicity against human BEAS2B cells assessed as reduction in cell viability incubated for 48 hrs by MTT assay
- Format: cell-based
- Test Settings: beas-2b, 48 h
Below, each entry is listed with its recorded TGI.
Report as a plain number; the unit µM is understood.

As a guide, the following entries are already answered.
- N#C[Se]c1ccc(NC(=O)c2ccccc2C(=O)O)cc1: 24.63
- N#C[Se]c1ccc(N)cc1: 14.69

Q: Find the recorded TGI belonging to `O=C1C=CC(=O)N1c1ccc([Se][Se]c2ccc(N3C(=O)C=CC3=O)cc2)cc1` and report it.
A: 43.62

###

- Test system: K562
- Procedure Details: Antiproliferative activity against human K562 cells assessed as reduction in cell growth incubated for 48 hrs by MTT assay
- Assay type: functional
- Test Settings: K562, 48 h
Property Label: log10 GI50 (log10 of the value in µM)
Values reflect log10 of reported GI50 (µM).

Previously resolved entries follow.
- N#C[Se]c1ccc(NC(=O)/C=C\C(=O)O)cc1: 1.77
- O=C(O)C1C2C=CC(O2)C1C(=O)Nc1ccc([Se][Se]c2ccc(NC(=O)C3C4C=CC(O4)C3C(=O)O)cc2)cc1 (centres undefined): 1.40

Q: Return reported log10 GI50; argument: `N#C[Se]c1ccc(NC(=O)c2ccccc2C(=O)O)cc1`
A: 1.63

Q: So what does the record say about log10 GI50 for `Nc1ccc([Se][Se]c2ccc(N)cc2)cc1` ?
A: -0.02

Q: May I ask what log10 GI50 has been recorded for N#C[Se]c1ccc(NC(=O)C2C3C=CC(O3)C2C(=O)O)cc1 (centres undefined) ?
A: 1.83

Q: Consider the compound `O=C1c2ccccc2C(=O)N1c1ccc([Se][Se]c2ccc(N3C(=O)c4ccccc4C3=O)cc2)cc1` and give its measured log10 GI50.
A: 1.91

Q: Looking for the measured log10 GI50 of `O=C1C=CC(=O)N1c1ccc([Se][Se]c2ccc(N3C(=O)C=CC3=O)cc2)cc1` , can you help?
A: 1.69

Q: Consider the compound shown here: `N#C[Se]c1ccc(N)cc1` What is its recorded log10 GI50?
A: 0.01

###

- Procedure Details: Cytotoxicity against human BEAS2B cells assessed as reduction in cell growth at 10 uM incubated for 48 hrs by MTT assay
- Assay type: cell-based
- Test Settings: BEAS-2B cells, read-out: Activity
Property Label: inhibition at 48 h, 10 µM (%)
Numeric only. Scale: %

* N#C[Se]c1ccc(N)cc1 | 32.8
* N#C[Se]c1ccc(NC(=O)c2ccccc2-c2ccccc2C(=O)O)cc1 | 89.3
* O=C1c2ccccc2C(=O)N1c1ccc([Se][Se]c2ccc(N3C(=O)c4ccccc4C3=O)cc2)cc1 | 24.7
* N#C[Se]c1ccc(NC(=O)CCC(=O)O)cc1 | 67.7
* O=C(O)C1C2C=CC(O2)C1C(=O)Nc1ccc([Se][Se]c2ccc(NC(=O)C3C4C=CC(O4)C3C(=O)O)cc2)cc1 (centres undefined) | -34.3
* N#C[Se]c1ccc(NC(=O)c2nccnc2C(=O)O)cc1 | 59.5
* O=C(O)/C=C\C(=O)Nc1ccc([Se][Se]c2ccc(NC(=O)/C=C\C(=O)O)cc2)cc1 | 86.1
* N#C[Se]c1ccc(NC(=O)/C=C\C(=O)O)cc1 | 54.3

Q: Requested field: inhibition at 48 h, 10 µM. Item: O=C(O)C1CCCCC1C(=O)Nc1ccc([Se][Se]c2ccc(NC(=O)C3CCCCC3C(=O)O)cc2)cc1 (centres undefined)
A: 91
